# method: Pharmacokinetic drug-drug interaction study in rats after oral administration
# Format: in vivo, SD (Sprague-Dawley) rats
# measurementContext: male, Sprague-Dawley, rat, plasma, po, 4 mg/kg, rat plasma, TEL 4 mg/kg oral, alone; median (range)
# Excerpt: SPF (specific pathogen free)-grade male SD (Sprague-Dawley) rats (weight: 230 ± 10 g) were purchased from Beijing Weitong Lihua Experimental Animal Technology Co. Ltd. (Beijing, China). Before starting the experiment, the rats were given sufficient food and water and kept under suitable conditions for one week. […] The main pharmacokinetic parameters are presented as mean ± standard deviation and statistically analyzed using SPSS 25.0 software package (SPSS Inc., Chicago, IL, USA). […]
quantityMeasured: Tmax (h)
Only the number, expressed in h, is required.

Given the entry CCCc1nc2c(C)cc(-c3nc4ccccc4n3C)cc2n1Cc1ccc(-c2ccccc2C(=O)O)cc1 , report its measured Tmax.
8

###

# method: Pharmacokinetic drug-drug interaction study in rats after oral administration
# Assay type: in vivo, SD (Sprague-Dawley) rats
# measurementContext: male, Sprague-Dawley, rat, plasma, po, 1.2 mg/kg, rat plasma, LEN 1.2 mg/kg oral, alone; read-out: t1/2z (converted)
quantityMeasured: half-life (min)
Only the number, expressed in min, is required.

Given the entry COc1cc2nccc(Oc3ccc(NC(=O)NC4CC4)c(Cl)c3)c2cc1C(N)=O , report its measured half-life.
525

###

# method: Pharmacokinetic drug-drug interaction study in rats after oral administration
# Assay type: in vivo, SD (Sprague-Dawley) rats
# measurementContext: male, Sprague-Dawley, rat, plasma, po, 4 mg/kg, rat plasma, TEL 4 mg/kg oral, with LEN (1.2 mg/kg)
quantityMeasured: Cmax (ng/mL)
Only the number, expressed in ng/mL, is required.

Given the entry CCCc1nc2c(C)cc(-c3nc4ccccc4n3C)cc2n1Cc1ccc(-c2ccccc2C(=O)O)cc1 , report its measured Cmax.
99

###

# method: Pharmacokinetic drug-drug interaction study in rats after oral administration
# Assay type: in vivo, SD (Sprague-Dawley) rats
# measurementContext: male, Sprague-Dawley, rat, plasma, po, 4 mg/kg, rat plasma, TEL 4 mg/kg oral, with LEN (1.2 mg/kg); median (range)
quantityMeasured: Tmax (h)
Only the number, expressed in h, is required.

Given the entry CCCc1nc2c(C)cc(-c3nc4ccccc4n3C)cc2n1Cc1ccc(-c2ccccc2C(=O)O)cc1 , report its measured Tmax.
11

###

# method: Pharmacokinetic drug-drug interaction study in rats after oral administration
# Assay type: in vivo, SD (Sprague-Dawley) rats
# measurementContext: male, Sprague-Dawley, rat, plasma, po, 4 mg/kg, rat plasma, TEL 4 mg/kg oral, alone
quantityMeasured: Cmax (ng/mL)
Only the number, expressed in ng/mL, is required.

Given the entry CCCc1nc2c(C)cc(-c3nc4ccccc4n3C)cc2n1Cc1ccc(-c2ccccc2C(=O)O)cc1 , report its measured Cmax.
171

###

# method: Pharmacokinetic drug-drug interaction study in rats after oral administration
# Type: in vivo, SD (Sprague-Dawley) rats
# measurementContext: male, Sprague-Dawley, rat, plasma, po, 1.2 mg/kg, rat plasma, LEN 1.2 mg/kg oral, with TEL (4 mg/kg)
# Source text: SPF (specific pathogen free)-grade male SD (Sprague-Dawley) rats (weight: 230 ± 10 g) were purchased from Beijing Weitong Lihua Experimental Animal Technology Co. Ltd. (Beijing, China). Before starting the experiment, the rats were given sufficient food and water and kept under suitable conditions for one week. […] The main pharmacokinetic parameters are presented as mean ± standard deviation and statistically analyzed using SPSS 25.0 software package (SPSS Inc., Chicago, IL, USA). […]
quantityMeasured: Cmax (ng/mL)
Only the number, expressed in ng/mL, is required.

Given the entry COc1cc2nccc(Oc3ccc(NC(=O)NC4CC4)c(Cl)c3)c2cc1C(N)=O , report its measured Cmax.
644

Taken from paper PMC8880132.
